# Tested target: T1, Activin A (human, UniProt P08476 311-426)
# T1 construct: Homodimer of two βA subunits; bought from R&D Systems (#338-AC); also called inhibin-βA dimer; human Activin A
# T1 sequence: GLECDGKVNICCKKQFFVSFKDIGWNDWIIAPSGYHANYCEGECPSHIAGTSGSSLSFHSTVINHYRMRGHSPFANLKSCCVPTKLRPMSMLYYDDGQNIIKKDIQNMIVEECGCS
# Test: SPR, captured mAb, 37C
Measured metric: kon (M⁻¹ s⁻¹)
Numbers only, in M⁻¹ s⁻¹.

In plain terms, H4H10430P (antibody, human IgG4, V domains shown, also called H4H1430P; H4H10430P2) VH: EVQLVESGGGLVQPGRSLRLSCKASGFAFDDFAMHWVRQAPGKGLEWVSGIVWNSGDIGYADSVKGRFTISRDNAKNSLYLQLNSLRTEDTALYFCVKDMVRGLMGFNYYGMDVWGQGTTVTVSS VL: EIVLTQSPATLSLSPGERATLSCRASQTISTYLVWYRQRPGQAPSLLIYDASNRATDIPARFSGSGSGTDFTLTISSLEPEDFAVYYCQQRSNWPITFGQGTRLEIK has a documented kon of 3.8e+07
